target: Acetylcholinesterase (Homo sapiens) (UniProt P22303); test: Acetylcholinesterase (AChE) small molecule antagonists: enzyme-based qHTS assay (AID 1347397); settings: AChE enzyme activity inhibition; series mostly up to 115 µM; note: nearly all actives have a fitted effect of over 55% in size
Sequence (P22303 whole entry, looked up): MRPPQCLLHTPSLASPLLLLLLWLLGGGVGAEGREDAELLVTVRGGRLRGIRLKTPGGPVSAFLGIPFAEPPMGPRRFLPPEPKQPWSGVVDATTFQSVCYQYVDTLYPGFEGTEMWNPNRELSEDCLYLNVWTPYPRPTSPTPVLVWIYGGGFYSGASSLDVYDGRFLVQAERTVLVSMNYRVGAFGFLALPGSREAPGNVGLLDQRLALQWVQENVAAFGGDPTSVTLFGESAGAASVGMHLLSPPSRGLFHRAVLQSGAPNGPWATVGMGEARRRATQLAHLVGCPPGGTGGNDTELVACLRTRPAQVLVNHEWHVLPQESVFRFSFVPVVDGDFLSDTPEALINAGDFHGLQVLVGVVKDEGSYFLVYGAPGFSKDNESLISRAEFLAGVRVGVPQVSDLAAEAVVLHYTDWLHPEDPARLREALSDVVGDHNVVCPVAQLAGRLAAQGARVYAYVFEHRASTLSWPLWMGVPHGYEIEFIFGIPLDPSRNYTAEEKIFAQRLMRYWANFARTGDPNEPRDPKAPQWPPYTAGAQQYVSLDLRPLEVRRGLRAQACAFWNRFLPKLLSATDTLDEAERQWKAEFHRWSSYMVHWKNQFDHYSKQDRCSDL
Activity calls are given as the source filed them. Calls come from the whole dose curve.
Return exactly one item of label 1 for active, label 0 for inactive

CC1C2CC(CC2C2CCCC(O)C2)C1(C)C (configuration not stated)	label 0
C=COCC1CCC(COC=C)CC1 (configuration not stated)	label 0
CC1(C)CCC(C)(C)c2cc(NC(=O)c3ccc(C(=O)O)cc3)ccc21	label 0
CCCCCCCCCCCCN1CCOCC1	label 0
CCCCCCCCC1CCC(=O)O1 (configuration not stated)	label 0

**Q:** Can you look up the reported call for CC(=O)c1ccc2c(c1)CCCC2 for me?
**A:** label 0

**Q:** Can you look up the reported call for CCCOC(=O)c1c(Cl)c(Cl)c(Cl)c(Cl)c1C(=O)OCCC for me?
**A:** label 0

**Q:** Look up the recorded call for CC(C)(C)NCC(O)COc1ccc(NC(=O)NC2CCCCC2)cc1 (configuration not stated) in this test.
**A:** label 0

**Q:** Field: outcome | Entry: CC(=O)OCC(CCn1cnc2cnc(N)nc21)COC(C)=O
**A:** label 0

**Q:** Which result was noted for this compound in the test: CC(C)OC(=O)c1ccccc1C(=O)OC(C)C
**A:** label 0

**Q:** I would be grateful if you could indicate the recorded call for CO[Si](CCCS)(OC)OC .
**A:** label 0

**Q:** I would be grateful if you could indicate the recorded call for CCOC(=O)c1ncn2c1CN(C)C(=O)c1cc(F)ccc1-2 .
**A:** label 0

**Q:** Which result was noted for this compound in the test: Cc1ccc(O)cn1
**A:** label 0

**Q:** Please indicate how the test categorized COC(C)(C)CC(C)=O .
**A:** label 0

**Q:** Which outcome was assigned to CCCCC(CC)C(=O)OC(C)C (configuration not stated) in this test?
**A:** label 0

**Q:** Name the outcome recorded for CN1CCCCC1CCN1c2ccccc2Sc2ccc(S(C)=O)cc21 (configuration not stated) in the assay.
**A:** label 0

**Q:** I would be grateful if you could indicate the recorded call for COc1cc(NS(=O)(=O)c2ccc(N)cc2)nc(C)n1 .
**A:** label 0

**Q:** Dear all, I need the recorded test outcome for CC(=O)Oc1ccc(C(C)=O)cc1 , thank you.
**A:** label 0

**Q:** Field: outcome | Entry: CCCCCCOC(=O)CCCCC(=O)OCCCCCC
**A:** label 0
